- measured on: Full length G2019 human LRRK2 (Homo sapiens, UniProt Q5S007)
- Construct: purified recombinant Full length Flag-LRRK2 in assay buffer; made in house; host or cells: HEK293 6E cells transduced with BacMam virus (virus generated in Sf9 cells)
- Sequence (Q5S007 with tags, fused parts or gaps R50H): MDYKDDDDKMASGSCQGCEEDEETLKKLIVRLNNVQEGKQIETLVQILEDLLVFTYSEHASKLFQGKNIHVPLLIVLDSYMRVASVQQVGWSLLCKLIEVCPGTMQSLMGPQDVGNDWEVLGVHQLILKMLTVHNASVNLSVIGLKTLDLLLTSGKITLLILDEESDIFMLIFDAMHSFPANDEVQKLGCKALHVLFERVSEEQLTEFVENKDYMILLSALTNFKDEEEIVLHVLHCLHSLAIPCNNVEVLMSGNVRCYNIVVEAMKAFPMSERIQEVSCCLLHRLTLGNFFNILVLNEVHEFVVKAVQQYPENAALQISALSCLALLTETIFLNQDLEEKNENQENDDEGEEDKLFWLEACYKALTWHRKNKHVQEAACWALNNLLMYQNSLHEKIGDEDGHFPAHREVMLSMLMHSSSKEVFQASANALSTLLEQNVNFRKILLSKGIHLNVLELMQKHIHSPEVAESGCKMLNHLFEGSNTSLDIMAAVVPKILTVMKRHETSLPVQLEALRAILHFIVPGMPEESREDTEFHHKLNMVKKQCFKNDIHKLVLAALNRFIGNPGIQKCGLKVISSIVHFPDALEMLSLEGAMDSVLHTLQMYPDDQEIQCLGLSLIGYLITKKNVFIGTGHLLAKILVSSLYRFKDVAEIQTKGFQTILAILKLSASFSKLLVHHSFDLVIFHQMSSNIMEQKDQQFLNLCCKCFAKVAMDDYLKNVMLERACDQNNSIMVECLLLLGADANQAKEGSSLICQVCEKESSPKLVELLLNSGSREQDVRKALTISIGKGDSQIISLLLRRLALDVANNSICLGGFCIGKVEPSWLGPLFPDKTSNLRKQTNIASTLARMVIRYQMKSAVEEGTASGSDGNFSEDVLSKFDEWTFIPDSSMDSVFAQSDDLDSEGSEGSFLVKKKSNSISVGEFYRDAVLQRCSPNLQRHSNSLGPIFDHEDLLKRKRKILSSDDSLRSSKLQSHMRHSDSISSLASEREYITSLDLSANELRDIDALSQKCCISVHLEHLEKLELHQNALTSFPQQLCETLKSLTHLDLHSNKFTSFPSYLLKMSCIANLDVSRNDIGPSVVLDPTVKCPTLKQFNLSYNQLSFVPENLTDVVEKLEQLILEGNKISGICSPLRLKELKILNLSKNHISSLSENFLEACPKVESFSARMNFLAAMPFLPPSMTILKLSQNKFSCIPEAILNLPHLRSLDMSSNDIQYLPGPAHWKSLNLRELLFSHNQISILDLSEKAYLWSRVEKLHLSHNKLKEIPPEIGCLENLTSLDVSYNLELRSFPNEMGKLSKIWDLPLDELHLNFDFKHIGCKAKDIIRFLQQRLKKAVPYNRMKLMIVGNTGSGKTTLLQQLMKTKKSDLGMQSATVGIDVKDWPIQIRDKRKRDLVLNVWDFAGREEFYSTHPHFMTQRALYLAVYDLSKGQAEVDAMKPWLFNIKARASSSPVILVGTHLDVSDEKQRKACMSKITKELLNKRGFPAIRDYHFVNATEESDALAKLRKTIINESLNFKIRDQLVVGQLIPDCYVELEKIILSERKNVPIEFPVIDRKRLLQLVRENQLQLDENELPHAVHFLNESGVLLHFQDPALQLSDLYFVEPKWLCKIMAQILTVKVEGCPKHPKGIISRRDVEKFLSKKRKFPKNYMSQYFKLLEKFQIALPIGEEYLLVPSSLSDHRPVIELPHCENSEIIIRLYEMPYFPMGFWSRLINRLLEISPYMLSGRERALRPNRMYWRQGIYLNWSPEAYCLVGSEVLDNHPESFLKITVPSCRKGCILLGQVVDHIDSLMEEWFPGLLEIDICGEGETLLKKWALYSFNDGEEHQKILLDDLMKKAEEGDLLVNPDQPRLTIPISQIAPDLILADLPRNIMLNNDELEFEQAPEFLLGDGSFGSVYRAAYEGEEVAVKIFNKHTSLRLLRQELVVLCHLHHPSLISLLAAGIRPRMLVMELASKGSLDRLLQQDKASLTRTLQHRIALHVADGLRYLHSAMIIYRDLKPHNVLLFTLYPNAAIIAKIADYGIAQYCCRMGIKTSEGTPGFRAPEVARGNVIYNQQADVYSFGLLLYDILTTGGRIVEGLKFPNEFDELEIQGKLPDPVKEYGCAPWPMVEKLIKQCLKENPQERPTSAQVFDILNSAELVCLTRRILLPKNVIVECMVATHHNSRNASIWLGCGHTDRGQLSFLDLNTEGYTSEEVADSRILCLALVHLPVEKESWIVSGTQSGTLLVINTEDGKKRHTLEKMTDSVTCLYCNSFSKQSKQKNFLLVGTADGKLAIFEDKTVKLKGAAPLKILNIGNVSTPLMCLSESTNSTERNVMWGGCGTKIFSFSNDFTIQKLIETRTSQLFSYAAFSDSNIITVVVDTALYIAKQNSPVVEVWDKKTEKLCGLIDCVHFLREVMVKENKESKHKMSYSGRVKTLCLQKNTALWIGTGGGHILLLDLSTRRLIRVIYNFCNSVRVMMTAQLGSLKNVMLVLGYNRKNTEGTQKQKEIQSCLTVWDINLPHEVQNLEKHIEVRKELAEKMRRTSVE
- assay notes: Full length G2019 human LRRK2 Inhibition Mass Spectrometry assay
- Assay type: biochemical
- assay setup: LRRKtide substrate, RapidFire mass spectrometry; read-out: pIC50 in the Full length G2019 human LRRK2 Inhibition Mass Spectrometry assay (converted)
quantity measured: IC50

Return IC50 (reported value) for this molecule: Cc1nc(N2CCOC(C(C)O)C2)cc(-n2ncc3cc(C)c(C4CCN(C5CCOC5)CC4)cc32)n1 (single isomer, unassigned) [Example E137]
≤ 100 nM

Recall and state the measured IC50 for Cc1nc(N2CCOC[C@H]2CO)cc(-n2ncc3cc(C)c(C4CCN(C5CCOC5)CC4)cc32)n1 (single isomer, unassigned) .
≤ 1000 nM

For Cc1nc(N2CCOC[C@@H]2CO)cc(-n2ncc3cc(C)c(C4CCN(C5CCOC5)CC4)cc32)n1 (single isomer, unassigned) , write its IC50.
≤ 1000 nM

// Input: COc1nc(N2CCO[C@@H](CO)C2)cc(-n2ncc3cc(C)c(C4CCN(C5CCOC5)CC4F)cc32)n1 (single isomer, unassigned) [Example E117] . Output its IC50 only.
≤ 1000 nM

// fetch IC50 given entry Cc1nc(N2CCO[C@@H](CO)C2)cc(-n2ncc3cc(Cl)c(C4CCN(C5CCOC5)CC4)cc32)n1 (single isomer, unassigned)
≤ 100 nM

Using known records, supply IC50 for Cc1nc(N2CCOC(C(C)O)C2)cc(-n2ncc3cc(C)c(C4CCN(C5CCOC5)CC4)cc32)n1 (single isomer, unassigned) [Example E139]
≤ 1000 nM

----------
- measured on: Full length G2019 human LRRK2 (Homo sapiens, UniProt Q5S007)
- Construct: purified recombinant Full length Flag-LRRK2 in assay buffer; made in house; host or cells: HEK293 6E cells transduced with BacMam virus (virus generated in Sf9 cells)
- assay notes: Full length G2019 human LRRK2 Inhibition Mass Spectrometry assay
- Assay type: biochemical
- assay setup: LRRKtide substrate, RapidFire mass spectrometry; read-out: pIC50 in the Full length G2019 human LRRK2 Inhibition Mass Spectrometry assay (converted)
quantity measured: IC50

Tell me its IC50 given Cc1nc(N2CCO[C@H](CO)C2)cc(-n2ncc3cc(C)c(C4CCN(C5COCC5O)CC4)cc32)n1 (single isomer, unassigned) [Example E153] as the entry.
≤ 100 nM

// Input: COc1nc(N2CCO[C@@H](CO)C2)cc(-n2ncc3cc(C)c(C4CCN(C5CCOC5)CC4F)cc32)n1 (single isomer, unassigned) [Example E119] . Output its IC50 only.
≤ 100 nM

Please give the documented IC50 of Cc1nc(N2CCO[C@H](CO)C2)cc(-n2ncc3cc(C)c(C4CCN(C5COCC5F)CC4)cc32)n1 (single isomer, unassigned) [Example E149]
≤ 100 nM

Please report IC50 for the following molecule: Cc1nc(N2CCO[C@@H](CO)C2)cc(-n2ncc3cc(C)c(C4CCN(C5CCOC5)CC4F)cc32)n1 (single isomer, unassigned) [Example E102]
≤ 100 nM

Give IC50 for the following molecule: COc1nc(N2CC(O)C2)cc(-n2ncc3cc(Cl)c(C4CCN(C5CCOC5)CC4)cc32)n1 (single isomer, unassigned) [Example E30]
≤ 1000 nM

Input [2H]c1nn(-c2cc(N3CCO[C@@H](CO)C3)nc(C)n2)c2cc(C3CCN([C@@H]4CCOC4)CC3)c(C)cc12 [Example E94] , output reported IC50.
≤ 100 nM

----------
- measured on: Full length G2019 human LRRK2 (Homo sapiens, UniProt Q5S007)
- Construct: purified recombinant Full length Flag-LRRK2 in assay buffer; made in house; host or cells: HEK293 6E cells transduced with BacMam virus (virus generated in Sf9 cells)
- assay notes: Full length G2019 human LRRK2 Inhibition Mass Spectrometry assay
- Assay type: biochemical
- assay setup: LRRKtide substrate, RapidFire mass spectrometry; read-out: pIC50 in the Full length G2019 human LRRK2 Inhibition Mass Spectrometry assay (converted)
For each entry below, report its IC50 value.

Recall the reported IC50 of Cc1nc(OC2CC(O)C2)cc(-n2ncc3cc(C)c(C4CCN(C5CCOC5)CC4)cc32)n1 (single isomer, unassigned) when tested on Full length G2019 human LRRK2 (Homo sapiens, UniProt Q5S007).
≤ 1000 nM

# return IC50 for Cc1nc(N2CCOC(C(C)O)C2)cc(-n2ncc3cc(C)c(C4CCN(C5CCOC5)CC4)cc32)n1 (single isomer, unassigned) [Example E136] , test system: Full length G2019 human LRRK2 (Homo sapiens, UniProt Q5S007)
≤ 100 nM

Under Full length G2019 human LRRK2 (Homo sapiens, UniProt Q5S007), report IC50 for COc1nc(N2CCOCC2)cc(-n2ncc3cc(C)c(C4CCN(C5CCOC5)CC4F)cc32)n1 (single isomer, unassigned) [Example E126]
≤ 100 nM

Give IC50 for Cc1nc(N2CCO[C@H](CO)C2)cc(-n2ncc3cc(C)c(C4CCN(C5CCOC5)CC4)cc32)n1 (single isomer, unassigned) [Example E1] tested on Full length G2019 human LRRK2 (Homo sapiens, UniProt Q5S007).
79.4 nM

Give IC50; test system Full length G2019 human LRRK2 (Homo sapiens, UniProt Q5S007); compound COc1nc(N2CCOCC2)cc(-n2ncc3cc(C)c(C4CCN(C5CCOC5)CC4F)cc32)n1 (single isomer, unassigned) [Example E116]
≤ 100 nM

Retrieve IC50 on Full length G2019 human LRRK2 (Homo sapiens, UniProt Q5S007); query Cc1nc(N2CCOC(C(C)O)C2)cc(-n2ncc3cc(C)c(C4CCN(C5CCOC5)CC4)cc32)n1 (single isomer, unassigned) [Example E142]
≤ 1000 nM

State recorded IC50 with Full length G2019 human LRRK2 (Homo sapiens, UniProt Q5S007), entry Cc1nc(N2CCOC(C(C)O)C2)cc(-n2ncc3cc(C)c(C4CCN(C5CCOC5)CC4)cc32)n1 (single isomer, unassigned) [Example E140] , no comment.
≤ 100 nM

Give IC50 only, for Cc1nc(N2CCO[C@H](CO)C2)cc(-n2ncc3cc(C)c(C4CCN(C5CCOC5)CC4F)cc32)n1 (single isomer, unassigned) , using Full length G2019 human LRRK2 (Homo sapiens, UniProt Q5S007) data.
≤ 100 nM

For Full length G2019 human LRRK2 (Homo sapiens, UniProt Q5S007), give the measured IC50 of the entry Cc1nc(N2CCO[C@H](CO)C2)cc(-n2ncc3cc(C)c(C4CCN(C5COCC5F)CC4)cc32)n1 (single isomer, unassigned) [Example E150]
≤ 1000 nM

State IC50 on Full length G2019 human LRRK2 (Homo sapiens, UniProt Q5S007). Entry: Cc1nc(N[C@H]2C[C@@H](O)C2)cc(-n2ncc3cc(C)c(C4CCN(C5CCOC5)CC4)cc32)n1 (single isomer, unassigned) [Example E134]
≤ 100 nM

Provide IC50, system Full length G2019 human LRRK2 (Homo sapiens, UniProt Q5S007), entry Cc1nc(N2CC(O)C2)cc(-n2ncc3cc(C)c(C4CCN(C5CCOC5)CC4F)cc32)n1 (single isomer, unassigned)
≤ 1000 nM

For Full length G2019 human LRRK2 (Homo sapiens, UniProt Q5S007), give the measured IC50 of the entry COc1nc(N2CCOCC2)cc(-n2ncc3cc(C)c(C4CCN(C5CCOC5)CC4F)cc32)n1 (single isomer, unassigned) [Example E115]
≤ 10 nM

Recall the reported IC50 of Cc1nc(N2CCOC(C)(CO)C2)cc(-n2ncc3cc(C)c(C4CCN([C@H]5CCOC5)CC4)cc32)n1 (stereo partly shown) when tested on Full length G2019 human LRRK2 (Homo sapiens, UniProt Q5S007).
≤ 100 nM

Lab note: Full length G2019 human LRRK2 (Homo sapiens, UniProt Q5S007) assay, enter IC50 for COc1nc(N2CCO[C@H](CO)C2)cc(-n2ncc3cc(C)c(C4CCN(C5CCOC5)CC4F)cc32)n1 (single isomer, unassigned) here
≤ 100 nM

Give Full length G2019 human LRRK2 (Homo sapiens, UniProt Q5S007) IC50 for the following compound: Cc1nc(N2CCO[C@H](CO)C2)cc(-n2ncc3cc(C)c(C4CCN(C5COCC5C)CC4)cc32)n1 (stereo partly shown)
≤ 100 nM

Provide the reported IC50 (system: Full length G2019 human LRRK2 (Homo sapiens, UniProt Q5S007)) for Cc1nc(N2CCO[C@@H](CO)C2)cc(-n2ncc3cc(C)c(C4CCN([C@H]5CCOC5)CC4)cc32)n1 (single isomer, unassigned)
25.1 nM

Report measured IC50 on Full length G2019 human LRRK2 (Homo sapiens, UniProt Q5S007); entry: [2H]C1(N2CCC(c3cc4c(cnn4-c4cc(N5CCO[C@H](CO)C5)nc(C)n4)cc3C)CC2)CCOC1 (single isomer, unassigned)
≤ 1000 nM

Send back Full length G2019 human LRRK2 (Homo sapiens, UniProt Q5S007) IC50 of Cc1nc(N2CCOC(C(C)O)C2)cc(-n2ncc3cc(C)c(C4CCN(C5CCOC5)CC4)cc32)n1 (single isomer, unassigned) [Example E141] only.
≤ 100 nM

GET IC50 | system: Full length G2019 human LRRK2 (Homo sapiens, UniProt Q5S007) | item: Cc1nc(N2CC(C)(O)C2)cc(-n2ncc3cc(Cl)c(C4CCN(C5CCOC5)CC4)cc32)n1 (single isomer, unassigned) [Example E127]
≤ 100 nM

The reported numbers originate from patent US20210130339A1.
